- target.entity: GLP-1 receptor (UniProt P43220 24-463, limits assumed)
- procedure.details: cell-based or functional assay
Bridge positions count the residues as written; N and C are the ends. Ends that are not written are not given here. PLA = phenyl lactic acid
quantity.measured: GLP-1 EC50 (nM)
Quick note: give the figure in nM, leave out the unit.

Example results:
binder="{PLA}-TSDYSKYLDERRAQDFVEWLMKT (lactam 18-22) [[PLA6, D9, E16, E24K28(lactam)]G(6~29)]" result=289
binder="HSQGTFTSDYARYLDARRAREFIKWLVRGRG [ANK2 (Bayer peptide)]" result=0.28
binder="{PLA}-TSDYSKYLDERRAKDFVEWLMDT (lactam 14-18) [[PLA6, D9, E16, K20E24(Lactam), D28]G(6-29)]" result=239

Now examine the next entry.
Request the reported GLP-1 EC50 associated with {PLA}-TSDYSKYLDERRAQDFVQWLMDT (lactam 6-10) [[PLA6, D9, K12E16(Lactam), D28]G(6-29)]
177

Where do these numbers come from? They come from patent US20110288003A1.
